log10 Ki values for the binders below.
Molecular target: T1, human glucagon receptor (human, UniProt P47871 26-477)
T1 construct: whole, on cells; Used as crude membranes of stably transfected HEK293 cells; also called hGcgR; hGLcgR
T1 sequence (P47871 26-477): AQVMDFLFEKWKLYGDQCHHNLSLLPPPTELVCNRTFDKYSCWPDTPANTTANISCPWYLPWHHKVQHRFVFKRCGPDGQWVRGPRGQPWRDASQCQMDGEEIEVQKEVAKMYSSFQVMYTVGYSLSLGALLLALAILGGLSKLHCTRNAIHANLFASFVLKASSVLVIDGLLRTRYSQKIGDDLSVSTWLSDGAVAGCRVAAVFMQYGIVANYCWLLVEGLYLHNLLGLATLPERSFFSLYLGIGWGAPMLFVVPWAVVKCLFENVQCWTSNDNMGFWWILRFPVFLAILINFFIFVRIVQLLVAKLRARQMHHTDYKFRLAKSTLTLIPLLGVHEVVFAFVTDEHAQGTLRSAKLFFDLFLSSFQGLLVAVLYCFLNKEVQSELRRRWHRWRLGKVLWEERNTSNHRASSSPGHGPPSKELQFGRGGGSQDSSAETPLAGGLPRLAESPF
Experiment: SPA, [125I]-Gcg displacement, hGcgR membranes
Record value = log10 of Ki given in nM.

Reported log10 Ki ( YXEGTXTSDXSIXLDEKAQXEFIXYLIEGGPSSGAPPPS (Aib2; αMeF(2F)6; 4Pal10; αMeL13; K17((2-[2-(2-Amino-ethoxy)-ethoxy]-acetyl)2-CO-(CH2)18-CO2H); Aib20; D-Glu24; C-terminal NH2) [Example 206] ) = 2.25

# log10 Ki of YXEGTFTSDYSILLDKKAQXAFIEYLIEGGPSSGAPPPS (Aib2; K17((2-[2-(2-Amino-ethoxy)-ethoxy]-acetyl)-AOC-(γ-Glu)-CO-(CH2)18-CO2H); Aib20; C-terminal NH2) [Example 108] = 2.23

For this binder ( XXEGTXTSDYSIXLDEKAQXEFIEYLIEGGPSSGAPPPS (DesTyr1; Aib2; αMeF(2F)6; αMeL13; K17((2-[2-(2-Amino-ethoxy)-ethoxy]-acetyl)2-(γ-Glu)-CO-(CH2)18-CO2H); Aib20; C-terminal NH2) [Example 134] ), measured log10 Ki is 1.78
